Source: PubChem BioAssay (NCATS)

system: MKL-2; assay: qHTS assay to identify novel small-molecules to repurpose for Merkel cell carcinoma treatment (AID 1296009); conditions: MCC and control cell lines, CellTiter-Glo viability, 72 h; series mostly up to 46 µM; note: nearly all actives have a fitted effect of over 60% in size; note: potency is the fitted concentration of half-maximal effect
Records with an inconclusive call do not appear. Activity calls are given as the source filed them. Calls come from the whole dose curve; as a rule, active = well fitted inhibition curve with a large enough effect; inconclusive = small, poorly fitted or top-dose-only effect; inactive = flat fitted curve, though single readings scatter.
MEASURED_QUANTITY: Potency

>  <COMPOUND>
O=C(O)CCC(=O)Nc1ccc(S(=O)(=O)Nc2nccs2)cc1

>  <Potency>
inactive

$$$$
>  <COMPOUND>
OC[C@H]1O[C@@H](Oc2ccc(O)cc2)[C@H](O)[C@@H](O)[C@@H]1O

>  <Potency>
inactive

$$$$
>  <COMPOUND>
CC1(COc2ccc(CC3SC(=O)NC3=O)cc2)CCCCC1 (configuration not stated)

>  <Potency>
inactive

$$$$
>  <COMPOUND>
CC(=O)Oc1ccc(C)cc1

>  <Potency>
inactive

$$$$
>  <COMPOUND>
CC(=O)N[C@@H](CCC(=O)O)C(=O)O

>  <Potency>
inactive

$$$$

Task item: // fetch Potency given entry CCC1NC(=O)c2cc(S(N)(=O)=O)c(Cl)cc2N1 (configuration not stated)
Reply: inactive

Task item: // fetch Potency given entry O=C(Nc1cccc(C2=NCCN2)c1)Nc1cccc(C2=NCCN2)c1
Reply: inactive

Task item: // fetch Potency given entry CNCCCCOc1ccccc1Cc1ccccc1
Reply: 18.8 µM (active)
